Field: protein stability index. Provide a value for each of the sequences that follow.
Test system: Saccharomyces cerevisiae
Assay: protein stability index of tFT-peptide fusion (C-terminal peptide) (PSI (0-1 scale)); higher = more stable (slower turnover)
Settings: genetic background: wild type; temperature: 30 C
Give bare numbers.

Here's what some known entries look like.
LGLLGSLRTLSF :: 0.667
NELRREVLEEDL :: 0.657
WCECGVWGGLWG :: 0.719
FGVTRSPLDPLF :: 0.665
WLCGSIGHAMLG :: 0.739
RVTMLPSSQRGI :: 0.651
GVMCRTGSGMVM :: 0.711
RARASLIPNAGT :: 0.705
GGGWGERGRGGS :: 0.729
SMDISYLISFQR :: 0.743

Hi there! I need protein stability index for each item below, if you can.
1. LDGLFWHRPCFK
2. TKKKKKKNKKQE
3. YMIPVPFSNLCL
4. LQLKNTNKNKTT

[out]
0.734
0.683
0.66
0.666

----------
Field: protein stability index. Provide a value for each of the sequences that follow.
Test system: Saccharomyces cerevisiae
Assay: protein stability index of tFT-peptide fusion in deletion strain of DAS1 (PSI (0-1 scale)); higher = more stable (slower turnover)
Numbers only.

Here's what some known entries look like.
KKILRQKMNHQN :: 0.688
LVVYLSCVAYIN :: 0.0273
ARWRVGLWRGAA :: 0.675
CTSCGYKFRTIN :: 0.698
RLIQNLPVQFLN :: 0.57

Hi there! I need protein stability index for each item below, if you can.
1. CYSCGYKFRTNN
2. RLIQPLPCQFLN

[out]
[0.708, 0.587]

----------
Tested on: Saccharomyces cerevisiae
Assay: protein stability index of tFT-peptide fusion (C-terminal peptide) (PSI (0-1 scale)); higher = more stable (slower turnover)
Conditions: genetic background: wild type; temperature: 30 C
So basically: protein stability index at 0.5 or higher? That is condition met. Lower than 0.5? That is condition not met.

SWLKRNLFPVAI :: condition met
VNCFVYGKCCSG :: condition met
WVSMDFTGLVNG :: condition met

[in] Determine whether this sequence has protein stability index no lower than 0.5: `VYDASLPIRFFL`
[out] condition met

----------
System: Saccharomyces cerevisiae
Assay: protein stability index of tFT-peptide fusion (C-terminal peptide) (PSI (0-1 scale)); higher = more stable (slower turnover)
Details: genetic background: wild type; temperature: 30 C
Field: protein stability index. Provide a value for each of the sequences that follow.
Give bare numbers.

CLPGVVRGLSTM :: 0.703
FSTTSFPPSFFP :: 0.711
STIIKLCDCYKM :: 0.7
CWGLRVMGGTGR :: 0.702
FEFGGGIRGSLG :: 0.679

Hi there! I need protein stability index for each item below, if you can.
1. RYVVTVQGSGGE
2. WLVRHLGFVPWI
3. SFDPCLCTLSLL
4. RFRTVFFPLPRC
5. PPSPRPVPPPCH
6. KKREEVKKNIKI

[out]
0.688
0.7
0.696
0.716
0.705
0.681

----------
Test system: Saccharomyces cerevisiae
Experiment: protein stability index of tFT-peptide fusion (C-terminal peptide) (PSI (0-1 scale)); higher = more stable (slower turnover)
Details: genetic background: wild type; temperature: 30 C
Measurement Label: protein stability index
Answers are plain numbers.

RRCDKTMSEGFF :: 0.692
PPPPSLPPPSRP :: 0.713
RLLPVTISSSLS :: 0.702

Hi there! I need protein stability index for each item below, if you can.
1. LREENKKSETKR
2. KLGWSVTRAEVN
3. AMLDSPRHLPSA

[out]
1. 0.705
2. 0.687
3. 0.679

----------
Tested on: Saccharomyces cerevisiae
Assay: protein stability index of tFT-peptide fusion (C-terminal peptide) (PSI (0-1 scale)); higher = more stable (slower turnover)
Details: genetic background: wild type; temperature: 30 C
Measurement Label: protein stability index

LFRRPSVVFLFV :: 0.496
PPPYPPPPARSL :: 0.5
KYCPCIPLLIAL :: 0.429
VLVRVIYLLVSG :: 0.347
VFHLFSAVSLRL :: 0.592

Hi there! I need protein stability index for each item below, if you can.
1. GVWEGLQLGLIS
2. NKKKKKKSTKRN

[out]
0.783
0.691
